ASSAY NAME: Extrapyramidal activity: catalepsy inducing activity test
Set-up: species or system mice (dd strain male)
TEST PARAMETERS: mouse, in vivo, po
QUANTITY KIND: TD50 (mg/kg)
Answer in mg/kg, number only, no unit symbol.

{"COMPOUND": "O=C1[C@@H]2[C@@H]3CC[C@@H](C3)[C@@H]2C(=O)N1CCCCN1CCN(c2nsc3ccccc23)CC1 [Compound No. 5]", "TD50 [mg/kg]": 112}

I would be grateful if you could share the reported TD50 for O=C1[C@@H]2[C@H]3CC[C@H](C3)[C@@H]2C(=O)N1CCCCN1CCN(c2nsc3ccccc23)CC1 [Compound No. 1] . 68.1
